These measurements were taken from ChEMBL document CHEMBL3399966.

# Test system: Influenza A virus
# procedure.details: Antiviral activity against influenza A virus A/PR/8/34 strain incubated with MDCK cells assessed as reduction of viral RNA level equal to 1% of control level after 72 hrs by branched DNA assay
# Type: functional, organism-based
# condition.label: A/Puerto Rico/8/1934(H1N1)
Record Criterion met whenever EC99 is at 0.06 µM or higher; record Criterion not met when lower.

Worked set:
- compound: "Fc1cnc2[nH]cc(-c3ncc(F)c(N[C@H]4C5CCC(CC5)[C@@H]4c4nnn[nH]4)n3)c2c1 (mixture of isomers)"
  label.class: "Criterion met"
- compound: "Oc1cc([C@H]2C3CCC(CC3)[C@@H]2Nc2nc(-c3c[nH]c4ncc(F)cc34)ncc2F)[nH]n1 (mixture of isomers)"
  label.class: "Criterion met"
- compound: "Oc1cc([C@H]2C3CCC(CC3)[C@@H]2Nc2nc(-c3c[nH]c4ncc(F)cc34)ncc2F)on1 (mixture of isomers)"
  label.class: "Criterion not met"
- compound: "CS(=O)(=O)[C@H]1C2CCC(CC2)[C@@H]1Nc1nc(-c2c[nH]c3ncc(F)cc23)ncc1F (mixture of isomers)"
  label.class: "Criterion met"

Incoming: In plain terms: is recorded EC99 at least 0.06 µM for O=C(O)[C@H]1C2CCC(CC2)[C@@H]1Nc1nc(-c2c[nH]c3ncc(F)cc23)ncc1F [PIMODIVIR] ?
Outgoing: Criterion not met

Incoming: Evaluate NS(=O)(=O)[C@H]1C2CCC(CC2)[C@@H]1Nc1nc(-c2c[nH]c3ncc(F)cc23)ncc1F (mixture of isomers) : EC99 at minimum 0.06 µM?
Outgoing: Criterion met

Incoming: // inclusive: EC99 at least 0.06 µM? input: OCC(O)[C@H]1C2CCC(CC2)[C@@H]1Nc1nc(-c2c[nH]c3ncc(F)cc23)ncc1F (mixture of isomers)
Outgoing: Criterion met
